Measured values drawn from patent US20140120095A1 for this set.

# target: T1, recombinant mouse DLL4 (C-terminally His-tagged extracellular domain, R&D Systems) (mouse, UniProt Q9JI71 27-532)
# T1 construct: extracellular domain; also called rmDLL4; mDLL4
# T1 sequence (Q9JI71 27-532): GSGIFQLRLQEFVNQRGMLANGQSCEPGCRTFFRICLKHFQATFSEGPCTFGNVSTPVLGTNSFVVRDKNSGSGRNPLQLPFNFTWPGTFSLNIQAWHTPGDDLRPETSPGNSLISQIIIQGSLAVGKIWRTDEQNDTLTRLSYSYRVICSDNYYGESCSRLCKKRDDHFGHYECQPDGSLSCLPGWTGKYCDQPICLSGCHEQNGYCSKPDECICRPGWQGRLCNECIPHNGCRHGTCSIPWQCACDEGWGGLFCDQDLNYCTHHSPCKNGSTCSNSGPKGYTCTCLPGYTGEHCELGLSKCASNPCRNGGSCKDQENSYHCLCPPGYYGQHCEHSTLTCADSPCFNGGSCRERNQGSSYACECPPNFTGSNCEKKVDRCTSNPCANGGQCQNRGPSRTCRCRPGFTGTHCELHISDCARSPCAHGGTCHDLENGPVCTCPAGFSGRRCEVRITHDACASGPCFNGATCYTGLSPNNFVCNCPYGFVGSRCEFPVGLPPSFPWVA
# protocol: SPR (Biacore), rmDLL4
value kind: Kd

• DLLBII015 (VHH, not shown: small tags and cut ends) VHH: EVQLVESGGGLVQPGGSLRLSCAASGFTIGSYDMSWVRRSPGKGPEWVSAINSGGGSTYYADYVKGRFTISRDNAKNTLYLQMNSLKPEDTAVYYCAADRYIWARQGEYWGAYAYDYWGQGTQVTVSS = 4.3 nM

Next binder, please.
Entry under test: DLLBII133G05 (VHH, not shown: small tags and cut ends) VHH: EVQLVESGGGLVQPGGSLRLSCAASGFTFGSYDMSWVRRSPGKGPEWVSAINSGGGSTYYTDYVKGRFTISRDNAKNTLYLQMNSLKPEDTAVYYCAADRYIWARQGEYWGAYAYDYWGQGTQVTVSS . Its Kd was 3.4 nM
